Hi there, I'd appreciate the recorded log10 of Ki for every entry that follows.
System tested: Complement C1s subcomponent (Homo sapiens)
Sequence (P09871 whole entry): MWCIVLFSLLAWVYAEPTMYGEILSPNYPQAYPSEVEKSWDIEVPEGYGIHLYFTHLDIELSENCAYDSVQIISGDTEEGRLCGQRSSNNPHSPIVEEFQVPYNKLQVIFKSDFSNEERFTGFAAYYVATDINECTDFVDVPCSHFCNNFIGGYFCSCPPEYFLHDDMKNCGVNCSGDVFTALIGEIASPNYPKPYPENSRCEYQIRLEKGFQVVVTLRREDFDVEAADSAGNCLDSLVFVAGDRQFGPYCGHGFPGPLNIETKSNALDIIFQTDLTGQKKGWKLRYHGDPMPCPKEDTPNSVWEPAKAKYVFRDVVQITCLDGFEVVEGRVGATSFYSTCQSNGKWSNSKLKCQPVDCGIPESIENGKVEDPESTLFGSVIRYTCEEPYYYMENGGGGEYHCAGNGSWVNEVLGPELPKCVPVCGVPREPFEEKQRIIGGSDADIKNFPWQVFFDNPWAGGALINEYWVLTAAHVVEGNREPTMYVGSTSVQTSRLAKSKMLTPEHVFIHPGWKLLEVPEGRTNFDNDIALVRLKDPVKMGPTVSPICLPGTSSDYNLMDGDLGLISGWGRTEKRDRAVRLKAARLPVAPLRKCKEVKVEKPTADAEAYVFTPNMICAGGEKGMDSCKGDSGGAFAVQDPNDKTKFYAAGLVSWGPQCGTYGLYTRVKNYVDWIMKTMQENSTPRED
Annotation: log10 of Ki, µM basis.

Challenge: Quick one: log10 of Ki of O=C(CCl)NC(Cc1ccc(O)cc1)C(=O)O (configuration not stated) ?
Response given: 3.05

Challenge: Quick one: log10 of Ki of CC(C)(C)CNC(=N)N ?
Response given: 4.13

Challenge: Quick one: log10 of Ki of Cc1nc(NC(=N)N)nc2ccccc12 ?
Response given: 1.88

Challenge: Quick one: log10 of Ki of N=C(N)c1ccc([N+](=O)[O-])cc1 ?
Response given: 4.97

Challenge: Quick one: log10 of Ki of N=C(N)Nc1ccccc1 ?
Response given: 2.74

Challenge: Quick one: log10 of Ki of O=C(NC(Cc1ccc(O)cc1)C(=O)O)c1ccccc1 (configuration not stated) ?
Response given: 2.57

Challenge: Quick one: log10 of Ki of N=C(N)NN ?
Response given: 4.26
